TARGET_ENTITY: S. aureus Fab I (Staphylococcus aureus)
Construct: made in house; host or cells: E. coli
Sequence (Q6GI75 whole entry): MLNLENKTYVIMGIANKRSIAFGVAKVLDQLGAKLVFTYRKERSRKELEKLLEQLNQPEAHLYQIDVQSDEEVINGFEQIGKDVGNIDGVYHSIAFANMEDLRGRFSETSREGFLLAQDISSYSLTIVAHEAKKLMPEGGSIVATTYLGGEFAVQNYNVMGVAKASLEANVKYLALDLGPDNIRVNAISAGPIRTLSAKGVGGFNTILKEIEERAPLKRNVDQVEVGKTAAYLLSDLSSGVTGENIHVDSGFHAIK
TEST_DETAILS: Inhibition of non his tagged (native) Fab I by saturated fatty acyl CoA's, NADH consumption at 340 nm
Format: biochemical
EXPERIMENTAL_SETUP: read-out: Mean IC50 (uM) (n = 2), 1 mM crotonoyl CoA and 1 mM NADH, 100 mM NaADA, pH 6.5
Protocol: Crotonoyl CoA was used as the substrate for Fab I and all activity measurements were based on a decrease in absorbance at 340 nm due to the utilization of NADH (FIG. 1). All assays were performed with 100 mM NaADA, pH 6.5 buffer. Acyl-CoA inhibition data was performed in the presence of 1 mM crotonoyl CoA and 1 mM NADH.
ASSAY_ENDPOINT: IC50 (µM)

MOLECULE	ASSAY_ENDPOINT	VALUE_RELATION_SIGN	REPORTED_VALUE
CCCCCCCCCC(=O)SCCNC(=O)CCNC(=O)C(O)C(C)(C)COP(=O)(O)OP(=O)(O)OC[C@H]1O[C@@H](n2cnc3c(N)ncnc32)[C@H](O)[C@@H]1OP(=O)(O)O (stereo partly drawn)	IC50	=	226
CCCC(=O)SCCNC(=O)CCNC(=O)[C@H](O)C(C)(C)COP(=O)(O)OP(=O)(O)OC[C@H]1O[C@@H](n2cnc3c(N)ncnc32)[C@H](O)[C@@H]1OP(=O)(O)O	IC50	>	1000
CCCCCC(=O)SCCNC(=O)CCNC(=O)C(O)C(C)(C)COP(=O)(O)OP(=O)(O)OC[C@H]1O[C@@H](n2cnc3c(N)ncnc32)[C@H](O)[C@@H]1OP(=O)(O)O (stereo partly drawn)	IC50	=	576
